- Test system: ncRNAs (SEQ ID NO 28-89)
- run-description: ncRNA arrays of melanocytes, keratinocytes, normal skin, melanoma cell lines and patient samples
- Set-up: species or system human
- measurement-conditions: melanoma patient 30 sample compared to normal skin
quantity-kind: ncRNA array expression, patient 30
Give bare numbers.

For each of the items listed, what is its ncRNA array expression, patient 30?
1. SEQ ID NO 65 (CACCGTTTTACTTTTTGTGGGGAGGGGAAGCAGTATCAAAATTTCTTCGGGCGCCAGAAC; listed as DNA, chemistry not given here; listed as Homo sapiens)
2. SEQ ID NO 77 (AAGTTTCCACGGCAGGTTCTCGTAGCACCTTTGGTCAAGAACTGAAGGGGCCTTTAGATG; listed as DNA, chemistry not given here; listed as Homo sapiens)
3. SEQ ID NO 37 (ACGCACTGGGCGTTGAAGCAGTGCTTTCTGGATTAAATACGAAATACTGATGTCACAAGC; DNA, backbone and methylation of C not given here; listed as Homo sapiens)
4. SEQ ID NO 44 (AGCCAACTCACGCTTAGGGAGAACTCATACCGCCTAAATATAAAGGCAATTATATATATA; listed as DNA, chemistry not given here; listed as Homo sapiens)
5. SEQ ID NO 55 (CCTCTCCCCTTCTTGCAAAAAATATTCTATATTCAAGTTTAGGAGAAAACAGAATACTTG; listed as DNA, chemistry not given here; listed as Homo sapiens)
6. SEQ ID NO 31 (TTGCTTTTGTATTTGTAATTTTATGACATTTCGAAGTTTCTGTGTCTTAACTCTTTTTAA; listed as DNA, chemistry not given here; listed as Homo sapiens)
7. SEQ ID NO 86 (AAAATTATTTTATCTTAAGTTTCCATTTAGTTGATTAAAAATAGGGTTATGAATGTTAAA; listed as DNA, chemistry not given here; listed as Homo sapiens)

Completion:
1. 0.5803
2. 0.6447
3. −1.17
4. 0.9814
5. −0.5021
6. −2.886
7. 1.029

For each of the substances below, state ncRNA array expression, patient 30.
1. SEQ ID NO 30 (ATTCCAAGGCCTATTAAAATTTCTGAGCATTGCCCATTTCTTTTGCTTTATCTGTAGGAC; DNA, backbone and methylation of C not given here; listed as Homo sapiens)
2. SEQ ID NO 32 (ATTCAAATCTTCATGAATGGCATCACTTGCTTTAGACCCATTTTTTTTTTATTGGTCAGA; DNA, backbone and methylation of C not given here; listed as Homo sapiens)

Completion:
1. 1.117
2. −2.05
